System: HCC 2998
Test: NCI tumour cell line growth inhibition, 48 h
Calls of active or inactive are those of the source. Cut-off read from the data, not from the text of the source: active = GI50 up to about 1.1 µM and inactive = higher.
Each entry below carries its reported GI50.

Guide cases for GI50, answers given:
O=CC1C(Cl)=Nc2nc3ccccc3n2C1c1ccccc1 (stereo unspecified) = 18.2 µM (inactive)
ClCc1nnc2n1-c1ccc(Cl)cc1SC2 = 4.06 µM (inactive)
O=C1N[C@H]2C(=O)c3c(Cl)sc(Cl)c3[C@H]2O1 = 1.94 µM (inactive)
C(=N\NC1=NCCCN1)/c1ccc(-c2cn3cc(/C=N/NC4=NCCCN4)ccc3n2)cc1 = > 53.3 µM (inactive)
C/C(CC(=O)Nc1cccc(C)c1C)=N\NC(N)=S = > 100 µM (inactive)

Give the measured GI50 of O=S(=O)(O)C(Cc1nc2ccccc2[nH]1)S(=O)(=O)OCCC1S(=O)(=O)OCCOS1(=O)=O (stereo unspecified) .
> 100 µM (inactive)

Give the measured GI50 of COc1ccc2nc3cc([N+](=O)[O-])ccc3c(NNc3ccc([N+](=O)[O-])cc3)c2c1 .
11.1 µM (inactive)

* * *

Tested on: A549
Assay: NCI tumour cell line growth inhibition, 48 h
Calls of active or inactive are those of the source. No stated cut-off is given here; in the data, active = GI50 up to about 1.1 µM and inactive = higher.
Attribute measured: GI50

Guide cases for GI50, answers given:
Clc1ccccc1-c1nnc2c(-c3ccccc3)nc3ccccc3n12 = > 100 µM (inactive)
CN(C)/N=N/c1nc2c(c(=O)n(C)c(=O)n2C)n1CC1CO1 (centres undefined) = 20 µM (inactive)
O=C(CCc1ccccc1CO)NCCc1ccccc1 = > 100 µM (inactive)
O=C(c1ccccc1)N1CCc2c([nH]c3ccccc23)C1 = 50.4 µM (inactive)

Give the measured GI50 of CN(C)CCCNC(=O)c1cc2/c(=C\c3ccc(N(C)C)cc3)c3ccccc3n2[n+]1C .
> 100 µM (inactive)

Give the measured GI50 of CCC1(COC(NC(=O)c2ccccc2)(C(F)(F)F)C(F)(F)F)COC1 .
> 100 µM (inactive)

Give the measured GI50 of O=C1c2c(Cl)c(Cl)c(Cl)c(Cl)c2C(=O)N1CCN(c1c(Cl)ssc1=O)c1c(Cl)ssc1=O .
> 100 µM (inactive)

Give the measured GI50 of O=S(=O)(O)C(Cc1nc2ccccc2[nH]1)S(=O)(=O)OCCC1S(=O)(=O)OCCOS1(=O)=O (centres undefined) .
> 100 µM (inactive)

Give the measured GI50 of COc1ccc(/C=C2\CCC(C)C3=C2NC(=S)NC3c2ccc(OC)c(OC)c2)cc1OC (centres undefined) .
16.9 µM (inactive)

Give the measured GI50 of O=C(O)CSc1nnc(Cc2ccccc2)[nH]1 .
> 100 µM (inactive)

Give the measured GI50 of CC(=O)Nc1ccc2c(c1)/C(=C\c1ccc([N+](C)(C)C)cc1)c1ccccc1-2 .
33.7 µM (inactive)

* * *

System: SK-MEL-28
Assay: NCI tumour cell line growth inhibition, 48 h
Calls of active or inactive are those of the source. Cut-off read from the data, not from the text of the source: active = GI50 up to about 1.1 µM and inactive = higher.
Attribute measured: GI50

CCN(CC)C1Oc2cc3c(cc2C(c2cccc(OC)c2OC)C1C)OCO3 (centres undefined) = 14.9 µM (inactive)
O=NN(CCCl)C(=O)N[C@H]1CC[C@@H](C(=O)O)CC1 = > 100 µM (inactive)

Give the measured GI50 of COc1ccc(C[C@H]2COC(=O)[C@@H]2Cc2cc(OC)c(OC)c(OC)c2)cc1OC .
98.2 µM (inactive)

Give the measured GI50 of COc1cc(NC(C)c2ccc3c(c2)OCCO3)cc(OC)c1OC (centres undefined) .
56.4 µM (inactive)

Give the measured GI50 of COc1ccc(N/N=C2\C3=C(CCC(C)(C)O3)C(=O)c3ccccc32)cc1 .
22.2 µM (inactive)

* * *

Tested on: SW-620
Assay: NCI tumour cell line growth inhibition, 48 h
The source made the active and inactive calls. Rule as the data show it: active = GI50 up to about 1.1 µM and inactive = higher.
Attribute measured: GI50

Guide cases for GI50, answers given:
CC(=O)/C(=C\I)c1ccccc1 = 1.3 µM (inactive)
c1ccc(-c2sc(-c3cccs3)cc2Cc2cccs2)cc1 = > 10 µM (inactive)
C[n+]1c(-c2ccc(NC(=O)c3ccc(C(=O)Nc4ccc(-c5cn6ccccc6[n+]5C)cc4)cc3)cc2)cn2ccccc21 = > 100 µM (inactive)
CC1(C)O[C@@H](CO)[C@H]([C@@]23OC[C@H]4OC(C)(C)OC4[C@@H]2OC(C)(C)O3)O1 (stereo partly specified) = > 100 µM (inactive)

Proceeding to the next compound to report its GI50.
Give the measured GI50 of COc1ccc(C=O)c(N(C)C(=O)C(C)(C)C)c1 .
> 100 µM (inactive)

* * *

Each entry below carries its reported GI50.
Tested on: LXFL 529
Assay: NCI tumour cell line growth inhibition, 48 h
Calls of active or inactive are those of the source. No stated cut-off is given here; in the data, active = GI50 up to about 1.1 µM and inactive = higher.

COC(OC)c1cccc2c1C1(O)CCC3(CC21)OCCCCO3 (stereo not given) = > 100 µM (inactive)
CCCCOP1(=O)C=CC(Cl)=C(C)C1 (stereo not given) = 27.9 µM (inactive)
Cc1cccc(C(C)C)c1NC(=O)C(=O)CC(=O)c1c(C)[n+]([O-])c2ccccc2[n+]1[O-] = 34 µM (inactive)
NNC(=O)/C(=C/c1ccc(Cl)c(Cl)c1)NC(=O)c1ccccc1 = > 100 µM (inactive)
CC(C)(C)NN=C1C(C)(C)C(=NNC(C)(C)C)C1(C)C = > 100 µM (inactive)
COc1cc2cccc(/N=C/c3c(Br)ccc(OC)c3OC(C)C)c2cc1OC = 26.8 µM (inactive)

Report GI50 for CC1=NN(C(=O)CC(=O)Nc2ccccc2)C(=O)C1/N=N/c1ccc(S(N)(=O)=O)cc1 (stereo not given) tested on LXFL 529.
81.7 µM (inactive)

Report GI50 for CCOc1cc[n+]([C-](C#N)C#N)cc1 tested on LXFL 529.
> 100 µM (inactive)

Report GI50 for Cc1nc2c(n1C(C)(C)C)C(=O)c1ccccc1C2=O tested on LXFL 529.
67.9 µM (inactive)

Report GI50 for O/N=C1/C(=C/c2ccccc2)CCCC1C(NO)c1ccccc1 (stereo not given) tested on LXFL 529.
49.1 µM (inactive)

* * *

Each entry below carries its reported GI50.
Tested on: MCF7
Test: NCI tumour cell line growth inhibition, 48 h
Active and inactive are the calls of the source. Rule as the data show it: active = GI50 up to about 1.1 µM and inactive = higher.

Give the measured GI50 of Cc1c(OCc2ccccc2)c(=O)ccn1CCc1c[nH]c2ccccc12 .
18.5 µM (inactive)

Give the measured GI50 of COc1cccc(-c2cc(O)c3cc(C)cnc3n2)c1 .
0.543 µM (active)

Give the measured GI50 of COc1ccc(C(=O)/C=C/c2ccc(OCC#N)cc2)cc1 .
15.8 µM (inactive)

Give the measured GI50 of Cc1ccc2oc(=O)c(C(=O)Nc3nc(C45CC6CC(CC(C6)C4)C5)cs3)cc2c1 .
> 100 µM (inactive)

Give the measured GI50 of CC(=O)N1C(Nc2cnc3ccccc3c2)CCN1c1ccccc1 (stereo unspecified) .
> 10 µM (inactive)

Give the measured GI50 of CSc1nc(=S)[nH]c2c1c(C)nn2-c1ccccc1 .
17.8 µM (inactive)

* * *

Test system: ACHN
Assay: NCI tumour cell line growth inhibition, 48 h
Calls of active or inactive are those of the source. Rule as the data show it: active = GI50 up to about 1.1 µM and inactive = higher. Peptide text beside a SMILES is read from it.
// one of label 1 = active, label 0 = inactive, no free text

Worked examples follow.
CC1(C)CC2CC(CC(C)(C)C2=O)C1=O = label 0
CC1=CC(C)(c2c[nH]c3ccccc23)CC(C)(C)c2c1[nH]c1ccccc21 (stereo not drawn) = label 0
COc1ccccc1Nc1nc(N)nc(N)c1N=O = label 0
CC(=O)O[C@H]1[C@@H]2OC(=O)[C@@](O)(CC3CCCO3)[C@@H]2CC(=O)[C@](C)(O)CC/C=C(\C)CCC[C@@H]1C (stereo partly drawn) = label 0
CCCc1ccc(OCC(=O)N/N=C/c2c(-c3ccccc3)[nH]c3ccccc23)cc1 = label 0

Outcome? CC(=O)NC(CS)C(=O)NC(CO)C(=O)NC(CO)C(=O)NC(Cc1c[nH]c2ccccc12)C(=O)N1CCCC1C(=O)NC(CO)C(=O)NC(Cc1c[nH]c2ccccc12)C(=O)NC(Cc1c[nH]cn1)C(=O)NC(CO)C(=O)NC(Cc1c[nH]c2ccccc12)C(=O)NCC(=O)NCC(=O)NC(C)C(=O)NC(CCC(N)=O)C(=O)NC(CCCCN)C(=O)NC(C)C(=O)NC(CCCNC(=N)N)C(=O)NC(CCCCN)C(N)=O (stereo not drawn) (Ac-CSSWPSWHSWGGAQKARK-NH2; configuration not given here)
label 0

Outcome? COC(CNC(=O)C(C)NC(=O)/C=C/c1ccccc1)OC (stereo not drawn)
label 0

Outcome? O=C(O)CSc1ncccc1[N+](=O)[O-]
label 0

Outcome? CSc1nc(=S)[nH]c2c1c(C)nn2-c1ccccc1
label 0

* * *

Tested on: HL-60
Experiment: NCI tumour cell line growth inhibition, 48 h
Structures can show the parent of a compound that is named as a salt. Active and inactive are the calls of the source. Rule as the data show it: active = GI50 up to about 1.1 µM and inactive = higher.
// one of 1.0 (active), 0.0 (inactive), no free text

Worked examples follow.
COC(=O)/C1=C/C2CC(/C=C(/c3ccccc3)C(=O)O1)C2 = 0.0
O=C(CCC1CCCCN1)Nc1ccc2c(c1)C(=O)c1ccc(NC(=O)CCN3CCCCC3)cc1C2=O (configuration not stated) = 0.0
O=C(Cc1ccccc1)NN1C(=O)C(Cl)C1c1ccc(O)cc1 (configuration not stated) = 0.0
CN(C)CCOC(c1ccccc1)c1ccccc1 [DIPHENHYDRAMINE HYDROCHLORIDE] = 0.0
O=C1c2cccc([N+](=O)[O-])c2C(=O)N1c1ncn[nH]1 = 0.0
O=NN(CCCl)C(=O)N[C@H]1CC[C@@H](C(=O)O)CC1 = 0.0
O/N=C1/C(=C/c2ccccc2)CCCC1C(NO)c1ccccc1 (configuration not stated) = 0.0
CC(C)[Si](OC1=C(C(=O)Nc2ccccc2Cl)CCCCC1)(C(C)C)C(C)C = 0.0
OC1c2ccccc2CC12Cc1ccccc1C2 (configuration not stated) = 0.0
N#C[C@@]12CCCC(=O)[C@@H]1[C@H]1CCC[C@H]12 = 0.0

Outcome? Cc1ccc(/C=N/NC2=NCCN2)s1
0.0

Outcome? COc1cc(OCc2nc3cc(C(F)(F)F)ccc3nc2-c2ccccc2)cc(OC)c1OC
0.0

Outcome? CC(C)(C)OC(=O)[N+](=N)C(=O)C1CCC(=O)N1C(=O)OCc1ccccc1 (configuration not stated)
0.0
